Biological target: viral kinase pUL-97 (Human cytomegalovirus)
Construct: The pUL-97 gene was cloned into a baculovirus vector; GST (glutathione S-transferase) (N); made in house; host or cells: Sf9 insect cells, baculovirus
Sequence (P16788 whole entry): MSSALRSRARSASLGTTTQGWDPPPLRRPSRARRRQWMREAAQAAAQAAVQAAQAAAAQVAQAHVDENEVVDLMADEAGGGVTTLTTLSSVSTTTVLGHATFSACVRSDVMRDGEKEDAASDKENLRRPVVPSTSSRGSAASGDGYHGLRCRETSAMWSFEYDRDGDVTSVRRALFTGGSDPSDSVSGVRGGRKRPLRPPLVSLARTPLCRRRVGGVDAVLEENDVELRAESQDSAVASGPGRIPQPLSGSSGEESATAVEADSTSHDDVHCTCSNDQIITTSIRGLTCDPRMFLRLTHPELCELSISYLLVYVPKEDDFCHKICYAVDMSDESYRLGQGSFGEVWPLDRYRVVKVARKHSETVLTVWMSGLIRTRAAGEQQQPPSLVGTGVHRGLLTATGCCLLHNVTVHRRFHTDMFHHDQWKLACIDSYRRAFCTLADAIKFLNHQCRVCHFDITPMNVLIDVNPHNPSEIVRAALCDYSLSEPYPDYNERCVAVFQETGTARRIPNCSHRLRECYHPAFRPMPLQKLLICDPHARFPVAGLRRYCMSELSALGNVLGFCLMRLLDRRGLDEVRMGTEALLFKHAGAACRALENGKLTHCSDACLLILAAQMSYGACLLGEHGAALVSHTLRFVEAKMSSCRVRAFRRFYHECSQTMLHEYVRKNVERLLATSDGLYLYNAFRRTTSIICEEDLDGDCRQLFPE
Experiment: UL97 kinase assay on Immobilon plate
Format: biochemical
Details: inhibition of UL 97 kinase activity; class by IC50 / % inhibition at 10 or 100 μM; read-out: Activity Class [A, B, C]
Protocol: UL97 Kinase-Assay on Immobilon Plate The effect of pyrazine derivatives of this invention was tested on the activity of the viral kinase pUL-97. […] Measuring Incorporation of Radioactivity: The Immobilon plate (Millipore) was rinsed with 50 μl methanol/well. […] After addition of 50 μl scintillation cocktail (Roth, Germany) per well incorporation of radioactivity was measured using a Betareader (Wallac) and enzymatic activity calculated.
What IC50 was measured for each of the following?

Write down IC50 measured for item Oc1ccc(-c2cncc(N3CCN(c4ccncc4)CC3)n2)cc1 [compound 57]
10 to 100 µM

Write down IC50 measured for item N#Cc1ccc(-c2cncc(N3CCN(c4ccncc4)CC3)n2)cc1 [compound 131]
1 to 10 µM

Write down IC50 measured for item COc1ccc(-c2cncc(N3CCN(c4ccncc4)CC3)n2)cc1OC [compound 77]
< 1 µM

Write down IC50 measured for item COc1ccc(N2CCN(c3cncc(-c4ccc(F)cc4F)n3)CC2)cc1OC [compound 41]
10 to 100 µM

Write down IC50 measured for item CSc1ccc(-c2cncc(N3CCN(c4ccncc4)CC3)n2)cc1 [compound 66]
< 1 µM

Write down IC50 measured for item NC(=O)c1ccc(-c2cncc(NCc3ccccc3)n2)cc1 [compound 28, 4-(6-Benzylamino-pyrazin-2-yl)-benzamide]
< 1 µM

Write down IC50 measured for item COc1ccc(Cl)cc1-c1cncc(N2CCN(c3ccccc3OC)CC2)n1 [compound 91]
10 to 100 µM

Write down IC50 measured for item Cc1ccc(-c2cncc(N3CCN(c4ccccn4)CC3)n2)cc1C [compound 50]
1 to 10 µM

Write down IC50 measured for item CC(=O)Nc1cccc(-c2cncc(N3CCN(c4cccc5[nH]ccc45)CC3)n2)c1 [compound 36]
10 to 100 µM
